Where do the numbers come from? From patent US9090600B2.

test system: Pythium aphanidermatum; experiment: Pythium test (cucumber)/seed treatment; format: in vivo; details: 10 g/dt seed of active ingredient, emerged seedlings after 7 days
Recorded Endpoint: Eff. % (%)
Respond with the bare value in %.

Sample records with Eff. %:
CCCCCOC(=O)Nc1cccc(CO/N=C(/c2ccccc2)c2noc(=O)n2C)n1 [Example 2]    98
C#CCOC(=O)Nc1cccc(CO/N=C(/c2ccccc2)c2noc(=O)n2C)n1 [Example 342]    100
CCOCC(C)OC(=O)Nc1cccc(CO/N=C(/c2ccccc2)c2noc(=O)n2C)n1 (centres unmarked) [Example 199]    99
C#CCC(C)OC(=O)Nc1cccc(CO/N=C(/c2ccccc2)c2noc(=O)n2C)n1 (centres unmarked) [Example 226]    99
C#CCCOC(=O)Nc1cccc(CO/N=C(/c2ccccc2)c2noc(=O)n2C)n1 [Example 3]    95
CCCC(C)OC(=O)Nc1cccc(CO/N=C(/c2ccccc2)c2noc(=O)n2C)n1 (centres unmarked) [Example 282]    100
Cn1c(/C(=N\OCc2cccc(NC(=O)OCc3ccccc3)n2)c2ccccc2)noc1=O [Example 168]    92

# context switch: different compound, same Eff. %
Query block: I have this compound here, CCCCC(=O)Nc1cccc(CO/N=C(/c2ccccc2)c2noc(=O)n2C)n1 [Example 15] , and I need its recorded Eff. %.
Result block: 98

* * *

Here the recorded LogP is given for each entry.
details: pH 2.7
Marks after values point to notes of the source that are not given here.

CC#CCC(C)OC(=O)Nc1cccc(CO/N=C(/c2ccccc2)c2noc(=O)n2C)n1 (racemic) [compound 455]    3.89 [a]
CCCCCCC(=O)Nc1nc(CO/N=C(/c2ccccc2)c2noc(=O)n2C)cs1 [Example 9]    4.13 [a]
Cn1c(/C(=N\OCc2cccc(NC(=O)OCCC3CCOCC3)n2)c2ccccc2)noc1=O [compound 537]    3.44 [a]
Cn1c(/C(=N\OCc2cccc(NC(=O)OCCc3ccccc3)n2)c2ccccc2)noc1=O [Example 7]    4.15 [a]
Cc1cccc(C(=NOCc2cccc(N)n2)c2noc(=O)[nH]2)c1 (mixture of isomers) [Example 121]    1.47 [a]

Query block: I have this compound here, Cn1c(/C(=N/OCc2cccc(N)n2)c2cccc(F)c2F)noc1=O [Example 416] , and I need its recorded LogP.
Result block: 1.26 [a]

Query block: I have this compound here, CCC(C)CCOC(=O)Nc1cccc(CO/N=C(/c2ccccc2)c2noc(=O)n2C)n1 (centres unmarked) [Example 56] , and I need its recorded LogP.
Result block: 4.78 [a]

Query block: I have this compound here, CC(Oc1cccc(Br)c1)C(=O)Nc1cccc(CO/N=C(/c2ccccc2)c2noc(=O)n2C)n1 (centres unmarked) [Example 179] , and I need its recorded LogP.
Result block: 4.46 [a]

* * *

details: pH 2.7
Marks after values point to notes of the source that are not given here.
Here the recorded LogP is given for each entry.

Sample records with LogP:
COCC(=O)Nc1cccc(CO/N=C(/c2ccccc2)c2noc(=O)n2C)n1    2.73 [a]
C#CCCOC(=O)Nc1cccc(CO/N=C(/c2cccc(OC)c2)c2noc(=O)n2C)n1    3.33 [a]

Query block: I have this compound here, CCn1c(/C(=N\OCc2cccc(NC(=O)C3COc4ccccc4O3)n2)c2ccccc2)noc1=O (stereo not shown) , and I need its recorded LogP.
Result block: 4.14 [a]

Query block: I have this compound here, Cn1c(/C(=N\OCc2csc(NC(=O)C3COc4ccccc4O3)n2)c2cccc(F)c2)noc1=O (stereo not shown) , and I need its recorded LogP.
Result block: 3.7 [a]
